- System: RT112
- ASSAY EXPLANATION: Inhibition of cell proliferation, RT112 human bladder cancer cells (CyQuant)
- Format: cell-based
- TEST CONTEXT: Homo sapiens, RT-112, 96 h, 96-h culture, read-out: Bladder Cancer Cell Lines IC50 (μM) RT112
RECORDED METRIC: IC50 (µM)

Sample answers from the record:
Challenge: Answer with the recorded IC50 for the molecule listed here: C=C1/C(=C\C=C2/CCC[C@]3(C)C(C4(C/C=C/C(O)(C(F)(F)F)C(F)(F)F)CC4)=CCC23)CC(O)C[C@@H]1O (stereo partly drawn)
Response given: 10.6

Challenge: Answer with the recorded IC50 for the molecule listed here: C=C1/C(=C\C=C2/CCC[C@]3(C)C([C@H](C)CCCC(C)(C)O)CC[C@@H]23)C[C@@H](O)C[C@@H]1O (stereo partly drawn) [1,25-Dihydroxycholecalciferol]
Response given: 19

Challenge: Answer with the recorded IC50 for the molecule listed here: C=C1/C(=C\C=C2/CCC[C@@]3(C)C2CCC3C(CCCC(C)(C)O)CCC(O)C(C)(C)O)C[C@@H](O)C[C@@H]1O (stereo partly drawn)
Response given: 25

(a) C=C1/C(=C\C=C2/CCC[C@]3(C)C(C4(CCCC(C)(C)O)CC4)=CCC23)CC(O)C[C@@H]1O (stereo partly drawn)
(b) C[C@]12CCC/C(=C\C=C3\CC(O)C[C@H](O)C3)C1CC=C2C1(C/C=C/C(O)(C(F)(F)F)C(F)(F)F)CC1 (stereo partly drawn)
Challenge: Could you tell me which of a and b has the lower IC50 reading? Respond using the label that marks the chosen record.
Response given: b
